# assay.info: NCI Yeast Anticancer Drug Screen. Data for the cln2 rad14 strain (AID 165);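 also: 0% = growth equal to vehicle treated cultures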
# details: S. cerevisiae cln2 rad14 strain, at 50.0 µM (retest, dose inferred, filed as 5.0), active compounds read high
About 79,000 compounds went through this panel and 15% of them were active in at least one assay; those are over-represented in the sample as a whole.
Label Criterion not met if growth inhibition falls below 10%; label Criterion met in every other case.

CC(=O)Nc1cc(C)ccc1C ... Criterion not met

We next turn to a different compound, shown below.
Task item: Is growth inhibition for `ON=C(Cc1ccccc1)Cc1ccccc1` at or above 10%?
Reply: Criterion not met

====

As shown below, each of these compounds has a reported growth inhibition value.
# assay.info: NCI Yeast Anticancer Drug Screen. Data for the cln2 rad14 strain (AID 165);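 also: 0% = growth equal to vehicle treated cultures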
# details: S. cerevisiae cln2 rad14 strain, at 50.0 µM, active compounds read high
Compounds without any hit were thinned out: in the full panel of roughly 79,000, 15% have a hit.
Expressed in %, but write only the number.

O=[N+]([O-])c1ccc(N/N=C/CC(O)(C(F)(F)F)C(F)(F)F)c([N+](=O)[O-])c1 ... 88
COc1ccc2c(c1)C(Cc1ccc(Oc3ccc(CC4c5cc(OC)ccc5CC[N+]4(C)C)cc3)cc1)[N+](C)(C)CC2 (stereo not given) ... 72
C=CCc1c2c(ccc(=O)c1O)-c1c(cc(OC)c(OC)c1OC)CCC2NC(C)=O (stereo not given) ... 72
CCCCCCCCCCCCCCCCCC(=O)OC(Cc1ccccc1)C(=O)O (stereo not given) ... 26.2

Then this compound:
Task item: Using the record for `Cc1c(OCc2cccc3ccccc23)ccc2c(=O)cc(SCCN3CCOCC3)oc12` , state its measured growth inhibition.
Reply: 25.1

====

# assay.info: NCI Yeast Anticancer Drug Screen. Data for the mlh1 rad18 strain (AID 175)
# details: S. cerevisiae mlh1 rad18 strain growth inhibition; at 50.0 µM
The panel holds about 79,000 compounds, 15% with a hit somewhere; the sample as a whole holds those more often. Active and inactive are the calls of the source. Cut-off read from the data, not from the text of the source: active = growth inhibition above about 70%; inactive = the rest.
// allowed return values: active, inactive

Use the examples below as a reference point.
N#Cc1c(/N=C/c2ccccc2Cl)sc2c1CCC2 ... inactive
CC(NC(=O)C(N)Cc1ccccc1)C(=O)NC1C(CO)OC(n2cnc3c(N)ncnc32)C1O (stereo unspecified) ... inactive
CC(C)CC(Nc1c(O)ccc2ccccc12)C(=O)O (stereo unspecified) ... active
N#CC(=C1C=CC(=NOC(=O)Nc2cccc3ccccc23)C=C1)c1ccccc1 ... active
CC(=O)OC1CC2C(C)(C)C(=O)C=C[C@]2(C)C2CCC3(C)C(=CC(=O)C3c3ccoc3)[C@]12C (stereo partly specified) ... inactive

Task item: What classification did `O=c1[nH]c(SCc2c(Cl)c(Cl)c(Cl)c(Cl)c2Cl)nc(=S)[nH]1` end up with in this test?
Reply: active

Task item: What classification did `Cc1ccccc1N=Nc1ccc(N=Nc2ccc(N)nc2N)c(C)c1` end up with in this test?
Reply: inactive

Task item: What classification did `C1=C(CN2CCCCC2)COc2ccccc21` end up with in this test?
Reply: active

Task item: What classification did `Nc1nc(-c2ccccn2)cc2ccccc12` end up with in this test?
Reply: inactive

Task item: What classification did `COc1ccc(N/N=C(\CCN(C)C)c2ccccc2)cc1` end up with in this test?
Reply: active

Task item: What classification did CC(NC(=O)/C(C#N)=C/c1ccc2[nH]ccc2c1)c1ccccc1 (stereo unspecified) end up with in this test?
Reply: active

Task item: What classification did `Cc1noc(-c2ccc([N+](=O)[O-])o2)n1` end up with in this test?
Reply: active

====

# assay.info: NCI Yeast Anticancer Drug Screen. Data for the sgs1 mgt1 strain (AID 161);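 also: 0% = growth of cultures given vehicle only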
# details: S. cerevisiae sgs1 mgt1 strain, at 50.0 µM, active compounds read high
About 79,000 compounds went through this panel and 15% of them were active in at least one assay; those are over-represented in the sample as a whole.
Label Condition not met if growth inhibition falls below 90%; label Condition met in every other case.

Use the examples below as a reference point.
Cc1ccnc2c1c(=O)c1ccccc1n2C ... Condition not met
N#CC(=C1C=CC(=NOC(=O)Nc2cccc3ccccc23)C=C1)c1ccccc1 ... Condition met
O=C(N/C=C/C=C/Sc1ccccc1)OCc1ccccc1 ... Condition not met
CCOC(=O)C(Cc1ccccc1[N+](=O)[O-])C(=O)OCC ... Condition not met
O=C(O)c1ccc(C(c2ccccc2)c2ccccc2)cc1 ... Condition met
Oc1ccc(Cc2ccccc2)cc1 ... Condition not met
COc1cc(C2C(C#N)=C(C)Nc3nc(N)nc(N)c32)cc(OC)c1OC (stereo not given) ... Condition not met
CN(C)C(=S)SC(=S)N(C)C ... Condition met

Task item: Is growth inhibition for COC1/C=C/OC2(C)Oc3c(C)c(O)c4c(c3C2=O)C(=O)C=C(NC(=O)/C(C)=C\C=C\C(C)C2OC(C)(C)OC(C2C)C(C)C(OC(C)=O)C1C)C4=O (stereo not given) at or above 90%?
Reply: Condition not met

Task item: Is growth inhibition for `CNC(=O)OCCN1c2ccccc2Sc2ccccc21` at or above 90%?
Reply: Condition met

Task item: Is growth inhibition for `c1ccc2c(c1)CC1=C(O2)c2ccccc2OC1` at or above 90%?
Reply: Condition not met

Task item: Is growth inhibition for `CN(C)/C=C1\CCc2ccc([N+](=O)[O-])cc2C1=O` at or above 90%?
Reply: Condition not met

Task item: Is growth inhibition for `CC(C)(C)OC(=O)NCCc1cccc2c1oc1c(CCC(=O)O)cccc12` at or above 90%?
Reply: Condition not met

====

# assay.info: NCI Yeast Anticancer Drug Screen. Data for the bub3 strain (AID 167)
# details: S. cerevisiae bub3 mutant strain, at 50.0 µM, active compounds read high
# Procedure: Growth inhibition of yeast strains with defined genetic alterations is measured as a screen for potential anti-cancer activity. Selected strains with alterations in DNA damage repair or cell cycle control were exposed to compounds and growth inhibition was measured relative to vehicle treated controls. The strain used in this assay is bub3
Compounds without any hit were thinned out: in the full panel of roughly 79,000, 15% have a hit.
As shown below, each of these compounds has a reported growth inhibition value.
Expressed in %, but write only the number.

CN=c1sc2nc(C#N)c(C#N)nc2n1C ... 89.8
Nc1ncnc2c(C3OC(CO)C(O)C3O)scc12 (configuration not stated) ... 47.6
C/C(=N\O)c1cc(Br)cc([N+](=O)[O-])c1O ... 8.3
CCc1[nH]c(=O)nc(N)c1-c1ccc(N2CCCCC2)c([N+](=O)[O-])c1 ... 71.4
CC1=NC(=Cc2ccc([N+](=O)[O-])cc2)C(=O)N1n1c(-c2ccccc2)nc2ccccc2c1=O ... 68
c1ccc(-c2conc2-c2ccccc2)cc1 ... 54
CCN(CC)C(=S)Sc1nc2ccccc2s1 ... 68.1
COc1ccc(CC(=O)c2ccc(O)cc2O)cc1 ... 77.1
Cc1ccc(OC(=O)c2ccc(N)cc2O)cc1 ... 77.7
CC(=O)OC1OC(=O)C(C)(C(C)=O)C1C (configuration not stated) ... 89.2

Task item: Using the record for COc1cc2c(c(OC)c1OC)-c1ccc(SC)c(=O)cc1C(NC(=O)c1ccccc1)CC2 (configuration not stated) , state its measured growth inhibition.
Reply: 78.5

Task item: Using the record for `O=[N+]([O-])c1ccc2ccccc2c1O` , state its measured growth inhibition.
Reply: 95.5

====

# assay.info: NCI Yeast Anticancer Drug Screen. Data for the mlh1 rad18 strain (AID 175)
# details: S. cerevisiae mlh1 rad18 strain growth inhibition; at 50.0 µM (retest, dose inferred, filed as 5.0); active compounds read high
Compounds without any hit were thinned out: in the full panel of roughly 79,000, 15% have a hit.
As shown below, each of these compounds has a reported growth inhibition value.
Expressed in %, but write only the number.

C=C1CC2(CC(c3ccccc3OC)OC(c3ccccc3OC)C2)OC1=O (stereo not given) ... 88
CC(NC(=O)C(N)Cc1ccccc1)C(=O)NC1C(CO)OC(n2cnc3c(N)ncnc32)C1O (stereo not given) ... 32
Oc1ccccc1C=Nc1ccccc1O ... 47
CN(C)CCC(=O)c1cccc([N+](=O)[O-])c1 ... 96
Nc1nc(Cl)cc(NCCCCCCCCCCNc2cc(Cl)nc(N)n2)n1 ... 99

Task item: Using the record for Cc1ccc(C23C=CC(c4ccccc4)(C2)C2C(=O)OC(=O)C23)cc1 (stereo not given) , state its measured growth inhibition.
Reply: 97

Task item: Using the record for `CCCCCCN(CCCCCC)C(=O)C1=C(C)NC(C)=C(C(=O)N(CCCCCC)CCCCCC)C1` , state its measured growth inhibition.
Reply: -13

====

# assay.info: NCI Yeast Anticancer Drug Screen. Data for the sgs1 mgt1 strain (AID 161);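 also: 0% = growth of cultures given vehicle only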
# details: S. cerevisiae sgs1 mgt1 strain, at 50.0 µM (retest, dose inferred, filed as 5.0), active compounds read high
Compounds without any hit were thinned out: in the full panel of roughly 79,000, 15% have a hit. The source made the active and inactive calls. Rule as the data show it: active = growth inhibition above about 70%; inactive = the rest.
result.type: growth inhibition

Recorded growth inhibition, per entry:
Fc1ccc2nc3ccccc3nc2c1 ... 10% (inactive)
CCCCCCCCCCCCCCCCCCOCC(O)CO (centres undefined) ... -1% (inactive)
O=[N+]([O-])c1ccc(OCCN(Cc2ccccc2)Cc2ccccc2)c([N+](=O)[O-])c1 ... 61% (inactive)
Cc1ccc(S(=O)(=O)C23C(N=NC2(C)C)C3(C)C)cc1 (centres undefined) ... 4% (inactive)
CCC(=O)OCOc1ccc(/C=C2\CCC(CN(C)C)C2=O)cc1 (centres undefined) ... 88% (active)
C=C1C(=O)C23OC2C1CCC(=O)C1(C)CC[C@H](OC(C)=O)C(C)(C)[C@H]1CC3=O (some centres undefined) ... 0% (inactive)
CN(C)c1nc(N)c(C#N)c(C#N)c1C#N ... 61% (inactive)
c1ccc(C2=NC(c3ccccc3)=NS(S3=NC(c4ccccc4)=NC(c4ccccc4)=N3)=N2)cc1 (centres undefined) ... 98% (active)
Cc1n(CC(C)C)c2c([n+]1C)C(=O)c1ccccc1C2=O ... 99% (active)
Cc1nc2cc(Cl)ccc2n1-c1ccccc1 ... 94% (active)

Task item: Using the record for `Cc1c(C)c(CCl)c(C)c(C)c1CCl` , state its measured growth inhibition.
Reply: 43% (inactive)
